The origin of these recorded values is paper PMC4336329.

# Target entity: human ether-à-go-go-related gene (hERG) potassium channel (human);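 further: peak tail current of the secondary pulse compared with the same well before compound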
# Sequence (Q12809 whole entry, looked up): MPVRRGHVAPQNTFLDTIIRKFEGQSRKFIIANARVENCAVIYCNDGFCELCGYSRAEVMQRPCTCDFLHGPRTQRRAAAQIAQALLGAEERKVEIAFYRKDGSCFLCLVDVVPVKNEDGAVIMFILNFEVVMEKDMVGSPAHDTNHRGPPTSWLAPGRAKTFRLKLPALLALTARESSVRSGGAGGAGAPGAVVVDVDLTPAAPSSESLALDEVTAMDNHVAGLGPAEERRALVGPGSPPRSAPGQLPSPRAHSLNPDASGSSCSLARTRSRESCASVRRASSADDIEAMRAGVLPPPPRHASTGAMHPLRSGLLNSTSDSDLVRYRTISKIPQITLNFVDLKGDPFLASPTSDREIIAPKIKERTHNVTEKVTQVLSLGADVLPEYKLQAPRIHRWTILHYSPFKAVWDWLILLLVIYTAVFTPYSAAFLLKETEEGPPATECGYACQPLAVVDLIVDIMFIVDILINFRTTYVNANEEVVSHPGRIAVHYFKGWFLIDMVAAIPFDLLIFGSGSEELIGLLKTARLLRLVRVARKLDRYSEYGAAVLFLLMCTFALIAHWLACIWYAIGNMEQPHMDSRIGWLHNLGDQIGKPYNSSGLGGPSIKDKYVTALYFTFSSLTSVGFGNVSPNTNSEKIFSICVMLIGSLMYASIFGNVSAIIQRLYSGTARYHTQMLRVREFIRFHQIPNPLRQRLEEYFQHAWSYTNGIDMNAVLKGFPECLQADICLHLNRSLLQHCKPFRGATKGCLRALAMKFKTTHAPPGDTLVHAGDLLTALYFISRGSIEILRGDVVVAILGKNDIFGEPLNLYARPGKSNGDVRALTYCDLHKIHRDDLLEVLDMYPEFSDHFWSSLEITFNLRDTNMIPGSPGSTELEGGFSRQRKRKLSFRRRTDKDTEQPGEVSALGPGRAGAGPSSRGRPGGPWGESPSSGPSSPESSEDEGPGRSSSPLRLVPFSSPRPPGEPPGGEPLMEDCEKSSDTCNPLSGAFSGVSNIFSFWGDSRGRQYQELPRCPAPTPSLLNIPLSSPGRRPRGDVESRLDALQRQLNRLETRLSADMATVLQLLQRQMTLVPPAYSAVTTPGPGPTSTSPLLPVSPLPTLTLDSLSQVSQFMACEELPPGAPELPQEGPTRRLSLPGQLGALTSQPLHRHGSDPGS
# Measurement protocol: primary screen, population patch clamp on CHO cells stably expressing hERG; higher = less effect of the substance
Hit rate of the full screen: of about 310,000 compounds, about 14,000 (4.5%) showed an effect of 50% or more. The effect is printed as a negative number. Only a selection was taken, and strong results are over-represented in it overall.
Endpoint name: hERG current change (%, negative = inhibition) at 10uM (%)

{"columns": ["Molecule", "Target entity", "Unit of measure", "Recorded value"],
 "data": [
  ["COc1ccc(-c2[nH]ncc2CN2CCC(O)(c3ccc(Cl)cc3)CC2)cc1", "human ether-à-go-go-related gene (hERG) potassium channel (human)", "%", -71.8],
  ["OC1(c2ccc(Cl)cc2)CCN(Cc2cn[nH]c2-c2ccc(F)cc2)CC1", "human ether-à-go-go-related gene (hERG) potassium channel (human)", "%", -68.7],
  ["CCN1CCCC1CNC(=O)c1cn(CC)c2ccc(S(=O)(=O)N3CCCCCC3)cc2c1=O (stereo not shown)", "human ether-à-go-go-related gene (hERG) potassium channel (human)", "%", -66.5],
  ["COc1ccc(C2(O)CCN(Cc3nnnn3Cc3ccc(C)cc3)CC2)cc1", "human ether-à-go-go-related gene (hERG) potassium channel (human)", "%", -21.4],
  ["CCn1cc(C(=O)NCCC(C)C)c(=O)c2cc(S(=O)(=O)N3CCCCC3)ccc21", "human ether-à-go-go-related gene (hERG) potassium channel (human)", "%", -7.53],
  ["CCc1ccc(N(CC(=O)NC2CCCCC2)C(=O)CNC(=O)c2ccco2)cc1", "human ether-à-go-go-related gene (hERG) potassium channel (human)", "%", -13.6],
  ["OC(CCCN1CCC(O)(c2ccc(Cl)cc2)CC1)c1ccc(F)cc1 (stereo not shown)", "human ether-à-go-go-related gene (hERG) potassium channel (human)", "%", -75.7],
  ["CCn1c(NC2CCCCC2)nc2ccccc21", "human ether-à-go-go-related gene (hERG) potassium channel (human)", "%", -15],
  ["COc1ccc(S(=O)(=O)N2CCC(O)(c3ccc(Cl)cc3)CC2)cc1", "human ether-à-go-go-related gene (hERG) potassium channel (human)", "%", 24.2],
  ["OC1(c2ccc(F)cc2)CCN(Cc2cccnc2)CC1", "human ether-à-go-go-related gene (hERG) potassium channel (human)", "%", 4.22]
]}
